- measured-on: M. smegmatis ribosomes (strain SZ380) (Mycolicibacterium smegmatis, UniProt A0QSG6)
- Construct: S30 extracts were prepared by addition of dithiothreitol (DTT) to 1 mM and centrifugation; endogenous in cells; host or cells: M. smegmatis strain SZ380, S30 cell extract
- Sequence (A0QSG6 whole entry): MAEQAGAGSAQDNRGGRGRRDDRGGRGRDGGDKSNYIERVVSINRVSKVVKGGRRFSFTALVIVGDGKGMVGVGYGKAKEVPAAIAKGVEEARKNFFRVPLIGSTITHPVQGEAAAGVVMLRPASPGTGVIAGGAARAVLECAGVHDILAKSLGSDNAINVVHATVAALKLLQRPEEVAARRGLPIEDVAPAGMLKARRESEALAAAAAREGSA
- assay-text: Mycobacterial cell-free translation inhibition assay
- Format: biochemical, Mycobacterium smegmatis
- condition-description: cell-free translation, M. smegmatis SZ380 S30 extract, luciferase readout; read-out: Ribo. IC50
measurement-type: IC50
Write the quantity with the unit trailing the number.

Reference set, count: 2
>  <molecule>
CCCCC1CC(O)(CNCc2ccc(F)cc2)C2(O)OC3C(NC)C(O)C(NC)C(O)C3OC2O1 (stereo not drawn) [bAmTroSPC (6)]

>  <IC50>
2.49 µM

$$$$
>  <molecule>
CCCCC1CC(O)(CN)C2(O)OC3C(NC)C(O)C(NC)C(O)C3OC2O1 (stereo not drawn) [AmTroSPC (13)]

>  <IC50>
2.71 µM

$$$$

Now look at this one.
The molecule listed as CCCC[C@@H]1C[C@@H](N)[C@]2(O)O[C@@H]3[C@@H](NC)[C@@H](O)[C@@H](NC)[C@H](O)[C@H]3O[C@@H]2O1 [Amino TroSPC (11)] shows IC50 equal to 0.64 µM

====

pIC50 values by entry
- measured-on: M. smegmatis ribosomes (strain SZ380) (Mycolicibacterium smegmatis)
- Construct: S30 extracts were prepared by addition of dithiothreitol (DTT) to 1 mM and centrifugation; endogenous in cells; host or cells: M. smegmatis strain SZ380, S30 cell extract
- assay-text: Mycobacterial cell-free translation inhibition assay
- Format: biochemical, Mycobacterium smegmatis
The scale used: pIC50 is minus the common logarithm of the concentration in molar units.

>  <compound>
CCCC[C@@H]1C[C@@H](NC(=O)Cc2ccccn2)[C@]2(O)O[C@@H]3[C@@H](NC)[C@@H](O)[C@@H](NC)[C@H](O)[C@H]3O[C@@H]2O1

>  <result-value>
5.61

$$$$
>  <compound>
CCCCC1CC(O)(CNCCc2ccc(F)cc2)C2(O)OC3C(NC)C(O)C(NC)C(O)C3OC2O1 (stereo not drawn)

>  <result-value>
5.64

$$$$

Now look at this one.
The compound listed as CCCC[C@@H]1CC(=O)[C@]2(O)O[C@@H]3[C@@H](NC)[C@@H](O)[C@@H](NC)[C@H](O)[C@H]3O[C@@H]2O1 [TroSPC (2), trospectomycin, reference compound] shows pIC50 equal to 6.29

====

- System: M. abscessus ATCC 19977
- assay-text: microbe, parasite or virus in culture
- condition-description: Mycobacteroides abscessus, ATCC19977, 72 h, read-out: WT MIC
measurement-type: MIC (µg/mL)
Give the number; µg/mL is assumed, so skip it.

>  <compound>
CCCC[C@@H]1C[C@@H](NC(=O)Cc2ccccn2)[C@]2(O)O[C@@H]3[C@@H](NC)[C@@H](O)[C@@H](NC)[C@H](O)[C@H]3O[C@@H]2O1

>  <measurement-type>
MIC

>  <unit-text>
µg/mL

>  <result-value>
64

$$$$
>  <compound>
CN[C@@H]1[C@H](O)[C@H](NC)[C@H]2O[C@@]3(O)C(=O)C[C@@H](C)O[C@H]3O[C@@H]2[C@H]1O

>  <measurement-type>
MIC

>  <unit-text>
µg/mL

>  <result-value>
512

$$$$
>  <compound>
CCCC[C@@H]1C[C@@H](N)[C@]2(O)O[C@@H]3[C@@H](NC)[C@@H](O)[C@@H](NC)[C@H](O)[C@H]3O[C@@H]2O1

>  <measurement-type>
MIC

>  <unit-text>
µg/mL

>  <result-value>
64

$$$$
>  <compound>
CCCCC1CC(O)(CNCc2ccc(F)cc2)C2(O)OC3C(NC)C(O)C(NC)C(O)C3OC2O1 (stereo not drawn)

>  <measurement-type>
MIC

>  <unit-text>
µg/mL

>  <result-value>
64

$$$$
>  <compound>
CCCCC1CC(O)(CN)C2(O)OC3C(NC)C(O)C(NC)C(O)C3OC2O1 (stereo not drawn)

>  <measurement-type>
MIC

>  <unit-text>
µg/mL

>  <result-value>
64

$$$$

The compound listed as CN[C@@H]1[C@H](O)[C@H](NC)[C@H]2O[C@]3(O)[C@H](O[C@@H]2[C@H]1O)O[C@H](C)C[C@@]3(O)CNCCc1ccc(F)cc1 [eAmSPC (7), reference compound] shows MIC equal to 4

The compound listed as CCCC[C@@H]1CC(=O)[C@]2(O)O[C@@H]3[C@@H](NC)[C@@H](O)[C@@H](NC)[C@H](O)[C@H]3O[C@@H]2O1 [TroSPC (2), trospectomycin, reference compound] shows MIC equal to 64

The compound listed as CCCCC1CC(O)(CNCCc2ccc(F)cc2)C2(O)OC3C(NC)C(O)C(NC)C(O)C3OC2O1 (stereo not drawn) shows MIC equal to 8

The compound listed as CN[C@@H]1[C@H](O)[C@H](NC)[C@H]2O[C@]3(O)[C@H](O[C@@H]2[C@H]1O)O[C@H](C)C[C@@]3(O)CNCc1ccc(F)cc1 [bAmSPC (5), reference compound] shows MIC equal to 128
